experiment-notes: Toxicity in ip dosed mouse
Type: organism-based
protocol-conditions: in vivo
Rule: measured TD50 below 0.9 mmol/kg gets yes; anything equal to or greater than 0.9 mmol/kg gets no.

smiles-code | assigned-class
CC(=O)c1nnn(-c2nc(Cl)nc(Cl)n2)c1NCc1ccc(Cl)cc1 | no
CC(=O)c1nnn(-c2nc(Cl)nc(Cl)n2)c1NCc1ccc([N+](=O)[O-])cc1 | yes
CCCC(CCC)C(=O)O | no
Cc1ccccc1-n1c(C)nc2ccccc2c1=O | no
CC(=O)c1nnn(-c2nc(Cl)nc(Cl)n2)c1NCc1ccc(C(F)(F)F)cc1 | yes
CC(=O)c1nnn(-c2nc(Cl)nc(Cl)n2)c1NCc1cc(F)cc(F)c1 | no

---

Each entry below carries its recorded selectivity ratio.
experiment-notes: Protective index, ratio of TD50 for toxicity in ip dosed mouse to ED50 for anticonvulsant activity in ip dosed mouse model of seizure
Type: organism-based
protocol-conditions: in vivo, read-out: Ratio TD50/ED50

molecule | selectivity ratio
CC(=O)c1nnn(-c2nc(Cl)nc(Cl)n2)c1NCc1ccc(Cl)cc1 | 2.38
CC(=O)c1nnn(-c2nc(Cl)nc(Cl)n2)c1NCc1ccc(F)cc1 | 2.61
CC(=O)c1nnn(-c2nc(Cl)nc(Cl)n2)c1NCc1ccc(C(F)(F)F)cc1 | 3.76
Cc1ccccc1-n1c(C)nc2ccccc2c1=O [METHAQUALONE] | 1.12
CCCC(CCC)C(=O)O [VALPROIC ACID] | 2.08
CC(=O)c1nnn(-c2nc(Cl)nc(Cl)n2)c1NCc1ccc([N+](=O)[O-])cc1 | 3.07
CC(=O)c1nnn(-c2nc(Cl)nc(Cl)n2)c1NCc1cc(F)cc(F)c1 | 2.1

---

Tested on: Mus musculus
experiment-notes: Anticonvulsant activity in ip dosed mouse model of seizure
Assay type: functional
Rule: measured ED50 below 0.5 mmol/kg gets Criterion met; anything equal to or greater than 0.5 mmol/kg gets Criterion not met.

smiles-code | assigned-class
Cc1ccccc1-n1c(C)nc2ccccc2c1=O | Criterion not met
CC(=O)c1nnn(-c2nc(Cl)nc(Cl)n2)c1NCc1ccc(C(F)(F)F)cc1 | Criterion met
CC(=O)c1nnn(-c2nc(Cl)nc(Cl)n2)c1NCc1ccc([N+](=O)[O-])cc1 | Criterion met
CC(=O)c1nnn(-c2nc(Cl)nc(Cl)n2)c1NCc1cc(F)cc(F)c1 | Criterion met
CC(=O)c1nnn(-c2nc(Cl)nc(Cl)n2)c1NCc1ccc(F)cc1 | Criterion met
CC(=O)c1nnn(-c2nc(Cl)nc(Cl)n2)c1NCc1ccc(Cl)cc1 | Criterion met
CCCC(CCC)C(=O)O | Criterion not met

---

Each entry below carries its recorded selectivity ratio.
experiment-notes: Therapeutic index, ratio of LD50 for toxicity in ip dosed mouse to ED50 for anticonvulsant activity in ip dosed mouse model of seizure
Assay type: organism-based
protocol-conditions: in vivo, read-out: TI
readout-kind: selectivity ratio

smiles-code | readout-kind | value-reported
CC(=O)c1nnn(-c2nc(Cl)nc(Cl)n2)c1NCc1ccc([N+](=O)[O-])cc1 | selectivity ratio | 4.14
CC(=O)c1nnn(-c2nc(Cl)nc(Cl)n2)c1NCc1ccc(F)cc1 | selectivity ratio | 3.35
CCCC(CCC)C(=O)O | selectivity ratio | 2.59
CC(=O)c1nnn(-c2nc(Cl)nc(Cl)n2)c1NCc1ccc(Cl)cc1 | selectivity ratio | 2.76
Cc1ccccc1-n1c(C)nc2ccccc2c1=O | selectivity ratio | 1.4
CC(=O)c1nnn(-c2nc(Cl)nc(Cl)n2)c1NCc1cc(F)cc(F)c1 | selectivity ratio | 2.21
CC(=O)c1nnn(-c2nc(Cl)nc(Cl)n2)c1NCc1ccc(C(F)(F)F)cc1 | selectivity ratio | 5.61
